molecular target: T1, human CD71 extracellular domain (human, UniProt P02786 89-760, biotinylated); assay: solution ELISA screen (luminescence)
T1 construct: extracellular domain; also called hCD71; huCD71 ECD
T1 sequence (P02786 other isoform, or with tags, fused parts or gaps): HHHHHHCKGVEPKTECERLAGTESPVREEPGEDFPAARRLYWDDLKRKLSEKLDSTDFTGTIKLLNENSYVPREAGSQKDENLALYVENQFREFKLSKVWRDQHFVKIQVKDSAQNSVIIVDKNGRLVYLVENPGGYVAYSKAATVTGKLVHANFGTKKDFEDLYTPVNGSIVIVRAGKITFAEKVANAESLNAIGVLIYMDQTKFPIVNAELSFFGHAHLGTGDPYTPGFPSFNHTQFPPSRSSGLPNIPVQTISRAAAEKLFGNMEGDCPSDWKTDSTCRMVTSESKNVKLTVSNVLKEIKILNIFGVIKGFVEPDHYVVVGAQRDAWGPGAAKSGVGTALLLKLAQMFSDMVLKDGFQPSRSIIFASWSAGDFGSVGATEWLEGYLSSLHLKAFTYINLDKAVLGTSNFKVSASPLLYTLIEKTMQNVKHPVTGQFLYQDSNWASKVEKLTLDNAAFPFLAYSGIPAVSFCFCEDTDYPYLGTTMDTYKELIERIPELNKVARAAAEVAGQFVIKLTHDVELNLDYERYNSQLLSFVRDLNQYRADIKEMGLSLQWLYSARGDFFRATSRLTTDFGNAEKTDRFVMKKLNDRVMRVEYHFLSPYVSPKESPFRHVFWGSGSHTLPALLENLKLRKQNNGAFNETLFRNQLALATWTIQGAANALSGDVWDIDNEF
# RLU values compiled below
Express it in RLU; write the number only.

Examples with answers:
SEQ ID NO 263 (designed binder, not shown: small tags and cut ends) MLPAPKNLVVSRVTEDSARLSWTAPDAAFDSFYIAYAEPRPDGEAIALVVPGSERSYDLTGLKPGTEYSVLIHGVKGGLLSSPLAANFTT :: 584000
SEQ ID NO 243 (designed binder, not shown: small tags and cut ends) MLPAPKNLVVSRVTEDSARLSWTAPDAAFDSFFIGYLEPQPPGEAIHLAVPGSERSYDLTGLKPGTEYNVTIQGVKGGFPSVPLAAVFTT :: 1.97e+06
SEQ ID NO 231 (designed binder, not shown: small tags and cut ends) MLPAPKNLVVSRVTEDSARLSWTAPDAAFDSFFIGYLEPQPPGEAIHLYVPGSERSYDLTGLKPGTEYNVTIQGVKGGFPSDPLDAVFTT :: 2.32e+06

**Q:** # get_value(readout='RLU', item= SEQ ID NO 246 (designed binder, not shown: small tags and cut ends) MLPAPKNLVVSRVTEDSARLSWTAPDAAFDSFYIAYAEPRPDGEAIQLHVPGSERSYDLTGLKPGTEYSVLIHGVKGGLLSSPLYAFFTT )
**A:** 548000

**Q:** # get_value(readout='RLU', item= SEQ ID NO 253 (designed binder, not shown: small tags and cut ends) MLPAPKNLVVSRVTEDSARLSWTAPDAAFDSFYIAYAEPRPDGEAIILHVPGSERSYDLTGLKPGTEYSVLIHGVKGGLLSSPLDAYFTT )
**A:** 3.47e+06

**Q:** # get_value(readout='RLU', item= SEQ ID NO 229 (designed binder, not shown: small tags and cut ends) MLPAPKNLVVSRVTEDSARLSWTAPDAAFDSFYIAYAEPRPDGEAIQLLVPGSERSYDLTGLKPGTEYSVLIHGVKGGLLSSPLVAHFTT )
**A:** 1.44e+06

**Q:** # get_value(readout='RLU', item= SEQ ID NO 257 (designed binder, not shown: small tags and cut ends) MLPAPKNLVVSRVTEDSARLSWTAPDAAFDSFYIAYAEPRPDGEAIQLGVPGSERSYDLTGLKPGTEYSVLIHGVKGGLLSSPLRAYFTT )
**A:** 802000

**Q:** # get_value(readout='RLU', item= SEQ ID NO 228 (designed binder, not shown: small tags and cut ends) MLPAPKNLVVSRVTEDSARLSWTAPDAAFDSFYIAYAEPRPDGEAIVLRVPGSERSYDLTGLKPGTEYSVLIHGVKGGLLSSPLAASFTT )
**A:** 3.88e+06

**Q:** # get_value(readout='RLU', item= SEQ ID NO 256 (designed binder, not shown: small tags and cut ends) MLPAPKNLVVSRVTEDSARLSWTAPDAAFDSFYIAYAEPRPDGEAIQLTVPGSERSYDLTGLKPGTEYSVLIHGVKGGLLSSPLHAYFTT )
**A:** 2.07e+06
